Experiment: distribution coefficient log P
Format: physicochemical
Conditions: pH = 7.4; read-out: lipophilicity log P

# molecule, logD
data = [
    ("CC1CCN(Cc2ccc(-c3nc4c(N)nc(N)nc4nc3N)cc2)CC1", 0.89),
    ("CC1CCCC(C)N1Cc1ccc(-c2nc3c(N)nc(N)nc3nc2N)cc1 (centres unmarked)", 0.68),
    ("Nc1nc(N)c2nc(-c3ccc(CN4CCCCC4)cc3)c(N)nc2n1", 0.2),
    ("CC(C)N(Cc1ccccc1)Cc1ccc(-c2nc3c(N)nc(N)nc3nc2N)cc1", 3.2),
    ("CC1CC(C)CN(CCCc2ccc(-c3nc4c(N)nc(N)nc4nc3N)cc2)C1 (centres unmarked)", 1.18),
    ("CN(C)CCc1ccc(-c2nc3c(N)nc(N)nc3nc2N)cc1", -0.59),
    ("Nc1nc(N)c2nc(-c3ccc(CN4CCC(Cc5ccccc5)CC4)cc3)c(N)nc2n1", 2.7),
    ("CN(C)Cc1ccc(-c2nc3c(N)nc(N)nc3nc2N)cc1", -0.36),
    ("CC1CCCC(C)N1CCCc1ccc(-c2nc3c(N)nc(N)nc3nc2N)cc1 (centres unmarked)", 0.04),
    ("CC1CC(C)CN(Cc2ccc(-c3nc4c(N)nc(N)nc4nc3N)cc2)C1 (centres unmarked)", 1.74),
    ("CN(C)CCCc1ccc(-c2nc3c(N)nc(N)nc3nc2N)cc1", -0.6),
]

Reference source for all entries: patent US5124326A
